Values compiled from the RNAGym collection of RNA variant scans (doi:10.1073/pnas.2313332121).

B1: TPR t1 (parent)
chain: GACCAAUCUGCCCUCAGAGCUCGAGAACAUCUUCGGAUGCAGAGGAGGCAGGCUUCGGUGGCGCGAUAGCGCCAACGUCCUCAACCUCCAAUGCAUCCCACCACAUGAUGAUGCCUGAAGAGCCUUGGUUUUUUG

Variants of: B1
Method: polymerase ribozyme fitness, log enrichment relative to wild type (log ratio); higher = more active; in vitro selection for triplet polymerase activity

Variant descriptor: A5U C11G A16U G60U A103C
polymerase ribozyme fitness (log ratio): -5.34
--
Variant descriptor: C56A U112G
polymerase ribozyme fitness (log ratio): -0.994
--
Variant descriptor: C99A C102A U109A G127C
polymerase ribozyme fitness (log ratio): -6.24
--
Variant descriptor: G113A G135U
polymerase ribozyme fitness (log ratio): -2.05
--
Variant descriptor: G17C G77U A91U C123A U132A
polymerase ribozyme fitness (log ratio): -3.88
--
Variant descriptor: C82U A95G
polymerase ribozyme fitness (log ratio): 0.358
--
Variant descriptor: C56A C70G C124A G127A
polymerase ribozyme fitness (log ratio): -2.78
--
Variant descriptor: C3U G71C G77A
polymerase ribozyme fitness (log ratio): -5.92
